Test: self-splicing fitness, log relative to wild type (ln ratio); higher = more splicing; Tetrahymena group I intron in knt gene, E. coli kanamycin selection, DiMSum; sequences stand for … in CUCUCU…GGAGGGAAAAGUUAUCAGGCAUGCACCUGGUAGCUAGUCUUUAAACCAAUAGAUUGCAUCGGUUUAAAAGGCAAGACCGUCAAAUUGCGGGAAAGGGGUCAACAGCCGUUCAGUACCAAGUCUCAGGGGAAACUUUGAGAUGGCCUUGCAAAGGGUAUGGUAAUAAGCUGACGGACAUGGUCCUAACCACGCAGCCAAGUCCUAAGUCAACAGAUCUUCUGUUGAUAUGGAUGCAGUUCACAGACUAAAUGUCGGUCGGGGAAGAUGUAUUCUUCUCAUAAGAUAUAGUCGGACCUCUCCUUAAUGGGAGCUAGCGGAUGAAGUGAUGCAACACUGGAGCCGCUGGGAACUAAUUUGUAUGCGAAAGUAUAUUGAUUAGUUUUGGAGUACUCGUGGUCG;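 note: selection with 25 µg/mL kanamycin versus none on LB agar overnight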
Details: 30 °C
Recorded self-splicing fitness (ln), one value per entry.
measurement.label: self-splicing fitness (ln)

[
  {
    "residue.string": "AAAGAGCAAUAUUACGGCCU",
    "experimental.result": -2.16
  },
  {
    "residue.string": "CCUCAGCAAUAUUACGGGGU",
    "experimental.result": -3.88
  },
  {
    "residue.string": "UAAUAGCAAUAUUACGCACC",
    "experimental.result": -2.04
  },
  {
    "residue.string": "AGUUAGCAAUAUUACGGGUC",
    "experimental.result": -1.99
  },
  {
    "residue.string": "UAUUAGCAAUAUUACGAUGA",
    "experimental.result": -0.641
  },
  {
    "residue.string": "UAUUAGCAAUAUUACGCUGC",
    "experimental.result": -2.92
  },
  {
    "residue.string": "CGUGAGCAAUAUUACGGGCC",
    "experimental.result": -1.9
  },
  {
    "residue.string": "UCUGAGCAAUAUUACGAUGU",
    "experimental.result": -2.72
  }
]

###

Assay: self-splicing fitness, log relative to wild type (ln ratio); higher = more splicing; Tetrahymena group I intron in knt gene, E. coli kanamycin selection, DiMSum; sequences stand for … in CUCUCU…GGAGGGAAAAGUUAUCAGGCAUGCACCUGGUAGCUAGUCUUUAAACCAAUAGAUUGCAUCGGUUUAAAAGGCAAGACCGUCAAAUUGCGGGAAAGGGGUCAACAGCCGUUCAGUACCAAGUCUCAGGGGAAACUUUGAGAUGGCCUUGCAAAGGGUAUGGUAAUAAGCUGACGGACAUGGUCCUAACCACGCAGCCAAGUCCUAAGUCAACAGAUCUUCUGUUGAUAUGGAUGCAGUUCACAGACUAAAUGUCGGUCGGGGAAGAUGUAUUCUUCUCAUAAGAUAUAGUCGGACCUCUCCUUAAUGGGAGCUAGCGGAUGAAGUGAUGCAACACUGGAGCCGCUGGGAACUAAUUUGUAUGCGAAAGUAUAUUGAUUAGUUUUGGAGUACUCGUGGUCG
Details: 30 °C
Recorded self-splicing fitness (ln), one value per entry.
measurement.label: self-splicing fitness (ln)

[
  {
    "residue.string": "CUUAAGCAAUAUUACGUUUG",
    "experimental.result": -3.89
  },
  {
    "residue.string": "GCAGAGCAAUAUUACGAAGG",
    "experimental.result": -4.31
  },
  {
    "residue.string": "GAUAAGCAAUAUUACGCUAC",
    "experimental.result": -2.85
  },
  {
    "residue.string": "UCACAGCAAUAUUACGAUUG",
    "experimental.result": -2.97
  },
  {
    "residue.string": "UGUGAGCAAUAUUACGUAGC",
    "experimental.result": -4.22
  },
  {
    "residue.string": "CAUGAGCAAUAUUACGAUUU",
    "experimental.result": -2.51
  },
  {
    "residue.string": "GGCGAGCAAUAUUACGCCUG",
    "experimental.result": -1.97
  },
  {
    "residue.string": "UGCAAGCAAUAUUACGAUUC",
    "experimental.result": -3.54
  },
  {
    "residue.string": "UCGGAGCAAUAUUACGUACG",
    "experimental.result": -1.21
  },
  {
    "residue.string": "UCCGAGCAAUAUUACGACAA",
    "experimental.result": -2.23
  },
  {
    "residue.string": "CGUUAGCAAUAUUACGCUAC",
    "experimental.result": -1.48
  },
  {
    "residue.string": "ACCUAGCAAUAUUACGAAAC",
    "experimental.result": -2.68
  },
  {
    "residue.string": "AGUCAGCAAUAUUACGACAC",
    "experimental.result": -0.0897
  },
  {
    "residue.string": "UGAUAGCAAUAUUACGACGA",
    "experimental.result": -0.476
  },
  {
    "residue.string": "UGUCAGCAAUAUUACGUGUA",
    "experimental.result": -0.648
  },
  {
    "residue.string": "UAUCAGCAAUAUUACGGACG",
    "experimental.result": -0.108
  },
  {
    "residue.string": "CUAGAGCAAUAUUACGUAAC",
    "experimental.result": -4.96
  },
  {
    "residue.string": "ACGAAGCAAUAUUACGUCGA",
    "experimental.result": -2.34
  },
  {
    "residue.string": "UAUGAGCAAUAUUACGUCGA",
    "experimental.result": -3.12
  },
  {
    "residue.string": "CGGCAGCAAUAUUACGUUGC",
    "experimental.result": -3.03
  },
  {
    "residue.string": "CCAUAGCAAUAUUACGCAGU",
    "experimental.result": -2.94
  },
  {
    "residue.string": "AGAGAGCAAUAUUACGGACU",
    "experimental.result": -0.413
  },
  {
    "residue.string": "GGCUAGCAAUAUUACGACUA",
    "experimental.result": -0.758
  },
  {
    "residue.string": "CCAGAGCAAUAUUACGGUCC",
    "experimental.result": -3.93
  },
  {
    "residue.string": "ACAGAGCAAUAUUACGGUGA",
    "experimental.result": -2.32
  },
  {
    "residue.string": "UUGCAGCAAUAUUACGGAAC",
    "experimental.result": -2.24
  },
  {
    "residue.string": "CUACAGCAAUAUUACGCGUG",
    "experimental.result": -1.83
  },
  {
    "residue.string": "UGUUAGCAAUAUUACGGCCA",
    "experimental.result": 0.385
  },
  {
    "residue.string": "CAAUAGCAAUAUUACGGCUA",
    "experimental.result": -2.26
  },
  {
    "residue.string": "GGCAAGCAAUAUUACGACGG",
    "experimental.result": -2.85
  },
  {
    "residue.string": "CAUGAGCAAUAUUACGUGGA",
    "experimental.result": -3.96
  },
  {
    "residue.string": "GCGCAGCAAUAUUACGUAUC",
    "experimental.result": -0.438
  },
  {
    "residue.string": "GUGUAGCAAUAUUACGGGGA",
    "experimental.result": -1.9
  },
  {
    "residue.string": "CGGCAGCAAUAUUACGUUGA",
    "experimental.result": -2.63
  },
  {
    "residue.string": "GGAAAGCAAUAUUACGCGAG",
    "experimental.result": -0.597
  },
  {
    "residue.string": "GAGGAGCAAUAUUACGACAA",
    "experimental.result": -2.14
  },
  {
    "residue.string": "CGUGAGCAAUAUUACGUGGU",
    "experimental.result": -3.02
  },
  {
    "residue.string": "ACUAAGCAAUAUUACGUGUA",
    "experimental.result": -2.6
  },
  {
    "residue.string": "GACGAGCAAUAUUACGCAGA",
    "experimental.result": -3.74
  },
  {
    "residue.string": "AUUUAGCAAUAUUACGCCCC",
    "experimental.result": -0.747
  },
  {
    "residue.string": "CGUCAGCAAUAUUACGACAA",
    "experimental.result": -0.159
  },
  {
    "residue.string": "CUAAAGCAAUAUUACGAGAC",
    "experimental.result": -3.33
  },
  {
    "residue.string": "CAAUAGCAAUAUUACGAUGG",
    "experimental.result": -1.09
  },
  {
    "residue.string": "CGACAGCAAUAUUACGAGAU",
    "experimental.result": -3.16
  },
  {
    "residue.string": "AACAAGCAAUAUUACGUUGU",
    "experimental.result": -2.17
  },
  {
    "residue.string": "GAAAAGCAAUAUUACGUAGC",
    "experimental.result": -2.66
  },
  {
    "residue.string": "UACCAGCAAUAUUACGAUAG",
    "experimental.result": -1.1
  },
  {
    "residue.string": "UUAUAGCAAUAUUACGGUGG",
    "experimental.result": -0.966
  },
  {
    "residue.string": "AUCUAGCAAUAUUACGCCUU",
    "experimental.result": -0.764
  },
  {
    "residue.string": "ACUGAGCAAUAUUACGGCCC",
    "experimental.result": -1.95
  },
  {
    "residue.string": "CGUGAGCAAUAUUACGUGUU",
    "experimental.result": -3.22
  },
  {
    "residue.string": "GUGCAGCAAUAUUACGGCAA",
    "experimental.result": 0.24
  },
  {
    "residue.string": "CAGAAGCAAUAUUACGAGGA",
    "experimental.result": -4.09
  },
  {
    "residue.string": "CAGGAGCAAUAUUACGGUUC",
    "experimental.result": -2.71
  },
  {
    "residue.string": "GGACAGCAAUAUUACGUCGC",
    "experimental.result": -3.12
  },
  {
    "residue.string": "CAGUAGCAAUAUUACGACCC",
    "experimental.result": -3.52
  },
  {
    "residue.string": "CCGCAGCAAUAUUACGAAUC",
    "experimental.result": -1.78
  },
  {
    "residue.string": "CCUGAGCAAUAUUACGUGAU",
    "experimental.result": -3.68
  },
  {
    "residue.string": "UGGAAGCAAUAUUACGCCGU",
    "experimental.result": -2.99
  },
  {
    "residue.string": "UUACAGCAAUAUUACGAUCU",
    "experimental.result": -1.88
  },
  {
    "residue.string": "CAGUAGCAAUAUUACGUCUC",
    "experimental.result": -3.93
  },
  {
    "residue.string": "GGUCAGCAAUAUUACGCACA",
    "experimental.result": -0.667
  },
  {
    "residue.string": "GCGUAGCAAUAUUACGUAUG",
    "experimental.result": -2.96
  },
  {
    "residue.string": "AGAGAGCAAUAUUACGGCCG",
    "experimental.result": -3.41
  },
  {
    "residue.string": "AUUAAGCAAUAUUACGCACC",
    "experimental.result": -1.52
  },
  {
    "residue.string": "GGAGAGCAAUAUUACGACGC",
    "experimental.result": -0.0524
  },
  {
    "residue.string": "UUCUAGCAAUAUUACGGAGA",
    "experimental.result": -2.45
  }
]
